Here the recorded reduction of eosinophil infiltration into the BALF is given for each entry.
Test system: mouse model of ovalbumin (OVA)-induced asthma
Assay: Experimental asthma model: eosinophil infiltrate in bronchioalveolar lavage fluid (BALF)
Type: in vivo
Conditions: single IV dose 1 mg/kg, 24 h prior to MCh
Respond with the bare value in %.

Consider the reported reduction of eosinophil infiltration into the BALF for these compounds:
COc1ccc(-c2ccc(CCC(=O)O)n2-c2ccc(C(N)=O)cc2C)cc1
92
COc1cc(Cl)ccc1-c1ccc(CCC(=O)O)n1-c1ccc(C(N)=O)cc1C
100
Cc1cc(C(N)=O)ccc1-n1c(CCC(=O)O)ccc1-c1ccc(-n2ccnc2C)cc1
46

Next compound, reduction of eosinophil infiltration into the BALF to be filled in.
Recorded reduction of eosinophil infiltration into the BALF of Cc1cc(NS(C)(=O)=O)ccc1-n1c(CCC(=O)O)ccc1-c1ccc(-n2ccnc2C)s1 , please.
63

###

// values below are IC50; system is GSNOR (GSNO Reductase) (Homo sapiens)
Sequence (P11766 whole entry): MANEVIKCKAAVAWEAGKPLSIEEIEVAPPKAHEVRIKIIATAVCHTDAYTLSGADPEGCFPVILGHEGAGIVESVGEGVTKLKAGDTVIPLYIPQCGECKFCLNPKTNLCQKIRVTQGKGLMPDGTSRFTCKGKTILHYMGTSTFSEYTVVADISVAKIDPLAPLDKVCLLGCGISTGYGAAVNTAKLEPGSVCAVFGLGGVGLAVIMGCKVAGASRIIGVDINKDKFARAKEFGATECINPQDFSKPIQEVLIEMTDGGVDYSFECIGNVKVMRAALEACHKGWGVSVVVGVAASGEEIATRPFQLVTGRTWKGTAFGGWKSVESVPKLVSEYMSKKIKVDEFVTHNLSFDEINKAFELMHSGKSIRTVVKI

COc1ccc(-c2ccc(CCC(=O)O)n2-c2ccc(C(N)=O)cc2C)c(Cl)c1 [Compound 118]
< 1000 nM

Recorded IC50 for COc1ccc(-c2ccc(CCC(=O)O)n2-c2ccc3ccncc3c2)cc1 [Compound 223] , please?
< 5000 nM

Record: COc1ccc(-c2ccc(CCC(=O)O)n2-c2ccc(C(N)=O)c(Cl)c2)cc1 [Compound 221]
< 1000 nM

Param item: COc1cc(Cl)ccc1-c1ccc(CCC(=O)O)n1-c1ccc(O)cc1 [Compound 262]
< 1000 nM

###

The next entries give measured IC50 for GSNOR (GSNO Reductase) (Homo sapiens).

Here are 3 compounds together with their reported answers.
COc1ccc(-c2ccc(CCC(=O)O)n2-c2ccc(C(N)=O)s2)cc1 [Compound 237]
< 5 µM
Cc1cc2nc[nH]c2cc1-n1c(CCC(=O)O)ccc1-c1ccc(-n2ccnc2)cc1 [Compound 219]
< 1 µM
COc1ccc(-c2ccc(CCC(=O)O)n2-c2ccc3c(N)noc3c2)cc1 [Compound 231]
< 1 µM

Sample CCc1nccn1-c1ccc(-c2ccc(CCC(=O)O)n2-c2ccc(C(N)=O)cc2C)cc1 [Compound 69] — what was its IC50?
< 1 µM

This collection of values is drawn from patent US8691816B2.
